Target: T1, human RANKL protein (human, UniProt O14788 140-317, limits assumed)
T1 sequence (looked up): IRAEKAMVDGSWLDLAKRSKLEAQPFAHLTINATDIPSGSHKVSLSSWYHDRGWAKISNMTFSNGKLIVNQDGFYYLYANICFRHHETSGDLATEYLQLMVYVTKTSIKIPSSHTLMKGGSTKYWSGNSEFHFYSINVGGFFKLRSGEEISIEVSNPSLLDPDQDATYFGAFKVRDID
Experiment: cell-based or functional assay
ASSAY METRIC: IC50 in a RAW cell assay (TRAP activity, OD 405 nM) (ng/mL)
Give bare numbers, in ng/mL.

Guide cases for IC50 in a RAW cell assay (TRAP activity, OD 405 nM), answers given:
INSERT INTO results (binder, reported_measurement) VALUES
  ('clone 383 rabbit anti-RANKL antibody (antibody, V domains shown) VH: QSLEESGGDLVKPGASLTLTCTASGFSFSRYVCWVRQAPGKGLEWIGCIAAGSSGYTYYASWAKGRLTISKTSSTTLTLQMTSLTVADTATYFCARSGDSYVGYFNLWGPGTLVTVSS VL: IVMTQTPASVEAAVGGTVTIKCQASQNIYNYLAWYQQQPGQPPKLLIYSASNLASGVSSRFKGSGSGTEFTLTISDLECGDAATYYCQSYYDSSRISYGSAFGGGTEVVVK', 2),
  ('clone 327 rabbit anti-RANKL antibody (antibody, V domains shown) VH: QSLEESGGRLVTPGTPLTLTCTVSGFSLSKYEINWVRQAPGKGLEWIGYIDVGSGTWYASWAKGRFTISKTSTTVALRITSPTTEDTATYFCSRQYNPMDLWGPGTLVTVSS VL: DMTQTPASVEAAVGGTVTIKCQASQNIGSNLAWYQQKPGQRPKLLIYSASTLASGVPSRFKGSGSGTQFTLTISGVQCDDAATYYCQQGYSVGNVNNAFGGGTEVVVK', 7.5);

If you can, please state the reported IC50 in a RAW cell assay (TRAP activity, OD 405 nM) value of clone 91 rabbit anti-RANKL antibody (antibody, V domains shown) VH: QSLEESGGRLVKPDETLTLTCTVSGSSLYNYEINWVRQAPGKGLEWIGYIDVGSGTWYASWAKGRFTISKTSTTVDLKITSPTTEDTATYFCTRKYNPMDLWGPGTLVTVSS VL: DMTQTPASVEVAVGGTVTIKCQASQNIGSNLAWYQQKPGQPPKLLIYSTSTVASGVPSRFKGSGFGTQFTLTISGVQCDDAATYYCQQGYSAGNVNNPFGGGTEVVVK . 4.88
